# testName: in vitro
# assayContext: chlorocebus sabaeus, Vero E6 (Vero C1008) cells, CC50
propertyName: CC50 at 48 h

compound	propertyName	valueMeasured
C=CC(=O)Nc1cc(Nc2nccc(-c3cn(C)c4ccccc34)n2)c(OC)cc1N(C)CCN(C)C	CC50 at 48 h	3.09 µM
CC[C@H]1CN2CC[C@H]1C[C@H]2[C@H](O)c1ccnc2ccc(OC)cc12 [HYDROQUININE]	CC50 at 48 h	> 25.1 µM
COc1cc(/C=C/C(=O)CC(=O)/C=C/c2ccc(O)c(OC)c2)ccc1O	CC50 at 48 h	14.8 µM
CN1C2CCC1CC(OC(c1ccccc1)c1ccc(Cl)cc1)C2 (centres undefined)	CC50 at 48 h	8.13 µM
